tested on: Staphylococcus aureus; assay: Antibacterial activity against Staphylococcus aureus TISTR 1466 by 2-fold serial dilution method; assay type: functional
MIC listing for selected compounds.
Number in µg/mL, nothing else.

CC(C)=CCc1c2c(c3occ(-c4ccc(O)cc4O)c(=O)c3c1O)C=CC(C)(C)O2
2

## Input Tell us which MIC value is on record for "CC(C)=CCc1c2c(c(O)c3c(=O)c(-c4ccc(O)cc4)coc13)C=CC(C)(C)O2"
## Output 2

## Input Tell us which MIC value is on record for "CC(C)=CCC1=C(O)c2c(occ(-c3ccc(O)cc3O)c2=O)C(CC=C(C)C)(CC=C(C)C)C1=O"
## Output 2

## Input Tell us which MIC value is on record for "CC(C)=CCc1c2c(c(O)c3c(=O)c(-c4ccc(O)c(O)c4)coc13)C=CC(C)(C)O2"
## Output 4

====

MIC listing for selected compounds.
system: Staphylococcus aureus; experiment: Antibacterial activity against Staphylococcus aureus TISTR 1466 by 2-fold serial dilution method; type: functional
Number in µg/mL, nothing else.

CN[C@H](CC(C)C)C(=O)N[C@H]1C(=O)N[C@@H](CC(N)=O)C(=O)N[C@H]2C(=O)N[C@H]3C(=O)N[C@H](C(=O)N[C@H](C(=O)O)c4cc(O)cc(O)c4-c4cc3ccc4O)[C@H](O)c3ccc(c(Cl)c3)Oc3cc2cc(c3O[C@@H]2O[C@H](CO)[C@@H](O)[C@H](O)[C@H]2O[C@H]2C[C@](C)(N)[C@H](O)[C@H](C)O2)Oc2ccc(cc2Cl)[C@H]1O
0.25

Please turn your attention to the following entry.
## Input Tell us which MIC value is on record for "CC(C)=CCc1c2c(c(O)c3c(=O)c(-c4ccc(O)cc4O)coc13)C=CC(C)(C)O2"
## Output 2

====

MIC listing for selected compounds.
test system: Staphylococcus epidermidis; assay: Antibacterial activity against Staphylococcus epidermidis ATCC 12228 by 2-fold serial dilution method; assay type: functional
Number in µg/mL, nothing else.

// worked examples, MIC included
CN[C@H](CC(C)C)C(=O)N[C@H]1C(=O)N[C@@H](CC(N)=O)C(=O)N[C@H]2C(=O)N[C@H]3C(=O)N[C@H](C(=O)N[C@H](C(=O)O)c4cc(O)cc(O)c4-c4cc3ccc4O)[C@H](O)c3ccc(c(Cl)c3)Oc3cc2cc(c3O[C@@H]2O[C@H](CO)[C@@H](O)[C@H](O)[C@H]2O[C@H]2C[C@](C)(N)[C@H](O)[C@H](C)O2)Oc2ccc(cc2Cl)[C@H]1O
0.25
CC(C)=CCc1c2c(c(O)c3c(=O)c(-c4ccc(O)cc4)coc13)C=CC(C)(C)O2
4
CC(C)=CCc1c2c(c(O)c3c(=O)c(-c4ccc(O)c(O)c4)coc13)C=CC(C)(C)O2
4
CC(C)=CCc1c2c(c(O)c3c(=O)c(-c4ccc(O)cc4O)coc13)C=CC(C)(C)O2
2
CC(C)=CCC1=C(O)c2c(occ(-c3ccc(O)cc3O)c2=O)C(CC=C(C)C)(CC=C(C)C)C1=O
2

Please turn your attention to the following entry.
## Input Enter measured MIC, system Staphylococcus epidermidis, for the compound shown: "CC(C)=CCc1c2c(c3occ(-c4ccc(O)cc4O)c(=O)c3c1O)C=CC(C)(C)O2"
## Output 2
